- Test system: SK-PN-DW;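 further: growth inhibition measured with a viability assay on these cells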
- procedure-details: cells
- Type: functional, cell-based
- settings: Homo sapiens
- Description: SANGER: Inhibition of human SK-PN-DW cell growth in a cell viability assay.
pIC50: −log10 of the molar value.
experimental-readout: pIC50

compound: Cn1cncc1[C@@](N)(c1ccc(Cl)cc1)c1ccc2c(c1)c(-c1cccc(Cl)c1)cc(=O)n2C [TIPIFARNIB]
pIC50: 4.81
--
compound: Cc1ccc(Nc2nccc(N(C)c3ccc4c(C)n(C)nc4c3)n2)cc1S(N)(=O)=O [PAZOPANIB]
pIC50: < 5.10
--
compound: O=c1cc(-c2cccc3c2Sc2ccccc2S3)oc(N2CCOCC2)c1 [KU-55933]
pIC50: < 5.00

The compound CC1=C2C[C@H]3[C@@H](CC=C4C[C@@H](O)CC[C@@]43C)[C@@H]2CC[C@]12O[C@@H]1C[C@H](C)CN[C@H]1[C@H]2C [CYCLOPAMINE] showed pIC50 equal to < 4.80

The compound `CCOc1nc(NC(=O)Cc2cc(OC)ccc2OC)cc(N)c1C#N` showed pIC50 equal to < 5.00

The compound Nc1ccn([C@@H]2O[C@H](CO)[C@@H](O)[C@@H]2O)c(=O)n1 [CYTARABINE] showed pIC50 equal to 6.38

The compound C=C1C(=O)O[C@@H]2C3O[C@]3(C)CC/C=C(\C)CC[C@@H]12 (stereo not given in full) showed pIC50 equal to < 5.30

The compound `CC(=O)O[C@@H]1[C@@H](OC(C)=O)[C@@H](O)[C@H](Oc2c(-c3ccc(O)cc3)oc3cc(O)cc(O)c3c2=O)O[C@H]1C` showed pIC50 equal to < 5.00

The compound CN1CCN(CCOc2cc(OC3CCOCC3)c3c(Nc4c(Cl)ccc5c4OCO5)ncnc3c2)CC1 [SARACATINIB] showed pIC50 equal to < 5.70

The compound COc1ccc(C2=N[C@@H](c3ccc(Cl)cc3)[C@@H](c3ccc(Cl)cc3)N2C(=O)N2CCNC(=O)C2)c(OC(C)C)c1 [NUTLIN-3] showed pIC50 equal to < 5.10

----------
- Tested on: NCI-H2126;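 further: growth inhibition of the cancer cell line, determined with a cell viability readout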
- procedure-details: cells
- Assay type: functional, cell-based, Homo sapiens
- settings: Homo sapiens, NCI-H2126
- Description: SANGER: Inhibition of human NCI-H2126 cell growth in a cell viability assay.
Reported IC50 values are given for each entry in this list.
Reply numerically in µM, unit not repeated.

compound: C=CCNC1=C2C[C@@H](C)C[C@H](OC)[C@H](O)[C@@H](C)/C=C(\C)[C@H](OC(N)=O)[C@@H](OC)/C=C\C=C(/C)C(=O)NC(=CC1=O)C2=O
experimental-readout: IC50
data-value: 0.568

Query compound follows.
NCI-H2126 data for COc1cc([C@@H]2c3cc4c(cc3[C@@H](O[C@@H]3O[C@@H]5CO[C@@H](C)O[C@H]5[C@H](O)[C@H]3O)[C@H]3COC(=O)[C@H]23)OCO4)cc(OC)c1O [ETOPOSIDE] ; its IC50: 10.4

----------
- Tested on: NCI-H1792;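 further: growth inhibition of human NCI-H1792 cells, read out as cell viability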
- procedure-details: cells
- Type: functional, cell-based, Homo sapiens
- settings: Homo sapiens, NCI-H1792
- Description: SANGER: Inhibition of human NCI-H1792 cell growth in a cell viability assay.
pIC50: −log10 of the molar value.
Reported pIC50 values are given for each entry in this list.

Look over these answered cases.
molecule: C=CCc1cccc(/C=N/NC(=O)CN2CCN(Cc3ccccc3)CC2)c1O [PAC-1]
pIC50: < 5.59
--
molecule: Nc1ccn([C@@H]2O[C@H](CO)[C@@H](O)[C@@H]2O)c(=O)n1 [CYTARABINE]
pIC50: 5.85
--
molecule: C[C@]1(O)C[C@@H](c2nc(-c3ccc4ccc(-c5ccccc5)nc4c3)c3c(N)nccn32)C1 [LINSITINIB]
pIC50: < 5.59
--
molecule: COc1cc([C@@H]2c3cc4c(cc3[C@@H](O[C@@H]3O[C@@H]5CO[C@@H](C)O[C@H]5[C@H](O)[C@H]3O)[C@H]3COC(=O)[C@H]23)OCO4)cc(OC)c1O [ETOPOSIDE]
pIC50: < 4.80
--
molecule: O=c1cc(-c2cccc3c2Sc2ccccc2S3)oc(N2CCOCC2)c1 [KU-55933]
pIC50: < 5.00

Query molecule follows.
NCI-H1792 data for `CC(=O)O[C@@H]1[C@@H](OC(C)=O)[C@@H](O)[C@H](Oc2c(-c3ccc(O)cc3)oc3cc(O)cc(O)c3c2=O)O[C@H]1C` ; its pIC50: < 5.00

Recorded values, source ChEMBL document CHEMBL1201861.
